target_or_test_system: Fyn (Homo sapiens)
Sequence (P06241 whole entry, species assumed): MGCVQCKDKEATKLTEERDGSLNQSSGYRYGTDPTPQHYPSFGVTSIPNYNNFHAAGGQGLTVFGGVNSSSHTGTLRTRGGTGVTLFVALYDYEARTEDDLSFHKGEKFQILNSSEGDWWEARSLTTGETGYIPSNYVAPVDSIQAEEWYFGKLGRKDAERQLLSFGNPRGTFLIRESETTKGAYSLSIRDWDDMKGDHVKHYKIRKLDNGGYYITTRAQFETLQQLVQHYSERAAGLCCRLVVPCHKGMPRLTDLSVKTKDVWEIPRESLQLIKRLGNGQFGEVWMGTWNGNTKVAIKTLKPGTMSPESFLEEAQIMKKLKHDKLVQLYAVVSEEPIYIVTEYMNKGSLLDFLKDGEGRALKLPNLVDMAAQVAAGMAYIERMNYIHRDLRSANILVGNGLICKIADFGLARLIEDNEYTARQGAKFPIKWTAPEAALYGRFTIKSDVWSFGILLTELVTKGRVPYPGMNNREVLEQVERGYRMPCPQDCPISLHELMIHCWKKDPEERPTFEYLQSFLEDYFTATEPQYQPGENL
property_name: IC50

COc1cc(Nc2ncnc(-n3c(Nc4ccccc4)nc4ccccc43)n2)cc(OC)c1OC = > 9.58 µM
COc1cc(Nc2ncnc(Nc3ccc(C(C)C)cc3)n2)cc(OC)c1OC = > 11.4 µM
COc1cc(Nc2ncnc(N3CCc4ccccc43)n2)cc(OC)c1OC = 1.05 to 6.33 µM
COc1cc(Nc2ncnc(-n3c(NCc4cccc(C)c4)nc4ccccc43)n2)cc(OC)c1OC = > 9.04 µM
COc1cc(Nc2ncnc(-n3c(N)nc4ccccc43)n2)ccc1OCCn1ccnn1 = > 10.1 µM

What does the record list as IC50 for COc1cc(Nc2ncnc(N3c4ccccc4CC3C)n2)cc(OC)c1OC (centres unmarked) ?
1.02 to 6.1 µM

Record: COc1cc(Nc2ncnc(-n3c(Nc4ccc5[nH]ncc5c4)nc4ccccc43)n2)cc(OC)c1OC
0.785 to 4.71 µM

How about COc1cc(Nc2ncnc(-c3ccccc3)n2)cc(OC)c1OC ?
10.3 to 13.3 µM

---

target_or_test_system: Itk (Homo sapiens, UniProt Q08881)
Construct: Kinases are expressed as either kinase domains or full length constructs; made in house
Sequence (Q08881 whole entry, species assumed, the tested form may be a part): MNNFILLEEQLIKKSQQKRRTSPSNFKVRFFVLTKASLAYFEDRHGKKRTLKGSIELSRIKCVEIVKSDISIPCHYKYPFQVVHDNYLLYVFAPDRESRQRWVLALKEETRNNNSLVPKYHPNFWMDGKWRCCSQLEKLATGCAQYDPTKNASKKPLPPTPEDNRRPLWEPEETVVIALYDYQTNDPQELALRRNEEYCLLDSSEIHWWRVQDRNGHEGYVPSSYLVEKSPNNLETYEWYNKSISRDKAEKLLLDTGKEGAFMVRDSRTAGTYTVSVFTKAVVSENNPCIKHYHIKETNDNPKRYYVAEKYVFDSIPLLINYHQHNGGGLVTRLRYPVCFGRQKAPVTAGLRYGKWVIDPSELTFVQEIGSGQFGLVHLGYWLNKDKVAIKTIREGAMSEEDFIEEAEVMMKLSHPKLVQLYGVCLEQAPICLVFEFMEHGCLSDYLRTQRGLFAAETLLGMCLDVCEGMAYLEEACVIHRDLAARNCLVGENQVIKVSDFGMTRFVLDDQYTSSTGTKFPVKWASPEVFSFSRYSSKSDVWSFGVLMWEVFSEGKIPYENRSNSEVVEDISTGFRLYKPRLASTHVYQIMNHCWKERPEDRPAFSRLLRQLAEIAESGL
experiment: Kinase inhibition assay (33P transfer), Itk
Type: biochemical
measurement_context: Table 3; read-out: Itk-1
pIC50: −log10 of the molar value.
property_name: pIC50

Before answering, review these 4 worked examples.
COc1cc(Nc2ncnc(N3CCC(O)CC3)n2)cc(OC)c1OC [Compound 208] = < 4.90
OCc1ccc(Nc2ncnc(-c3ccccc3)n2)cc1 [Compound 165] = < 4.79
COc1cccc(Nc2nc3ccccc3n2-c2ncnc(Nc3cc(OC)c(OC)c(OC)c3)n2)c1 [Compound 415] = < 5.05
CC(C)(C)OC(=O)Nc1ccc(Nc2ncnc(Nc3ccc(OCc4ccccc4)cc3)n2)cc1 [Compound 162] = < 5.03

Field: next compound
Recall the recorded pIC50 for COc1cc(Nc2ncnc(Nc3ccc(N4CCOCC4)cc3)n2)cc(OC)c1OC [Compound 101] with Itk (Homo sapiens, UniProt Q08881) and state it.
< 4.99

---

Reported IC50 by item:
target_or_test_system: Lck (Homo sapiens)
Construct: Kinases are expressed as either kinase domains or full length constructs; made in house
experiment: Kinase inhibition assay (33P transfer), Lck
Assay type: biochemical
measurement_context: read-out: Lck-1

Cc1cccc(Nc2ncnc(N(C)c3cccc(Br)c3)n2)c1 = 6.48 to 9.45 µM
COc1cc(Nc2ncnc(-n3c(NCc4ccc(Br)cc4)nc4ccccc43)n2)cc(OC)c1OC = 6.22 to 8 µM
COc1cc(Nc2ncnc(NCc3ccccc3)n2)cc(OC)c1OC = 1.09 to 6.53 µM

I have this compound here, COC(=O)c1ccc(-c2cc(Nc3ncnc(Nc4cccc(CC(N)=O)c4)n3)[nH]n2)cc1 , and I need its recorded IC50.
0.9 to 5.4 µM

Next: Nc1nc2ccccc2n1-c1ncnc(Nc2ccc(S(N)(=O)=O)cc2)n1
9.15 to 11.8 µM

Next entry: COc1cc(Nc2ncnc(Nc3cc(C(F)(F)F)ccc3F)n2)cc(OC)c1OC
0.91 to 5.46 µM

Subsequent entry: COc1cc(Nc2ncnc(-n3c(=O)[nH]c4ccccc43)n2)cc(OCCN2CCOCC2)c1OC
0.81 to 4.86 µM

Also check CCN(c1ccc(C)cc1)c1ncnc(Nc2cc(OC)c(OC)c(OC)c2)n1
1.01 to 6.07 µM

---

Reported IC50 values for a set of molecules
target_or_test_system: Zap-70 (Homo sapiens)
Construct: Kinases are expressed as either kinase domains or full length constructs; made in house
Sequence (P43403 whole entry, species assumed, the tested form may be a part): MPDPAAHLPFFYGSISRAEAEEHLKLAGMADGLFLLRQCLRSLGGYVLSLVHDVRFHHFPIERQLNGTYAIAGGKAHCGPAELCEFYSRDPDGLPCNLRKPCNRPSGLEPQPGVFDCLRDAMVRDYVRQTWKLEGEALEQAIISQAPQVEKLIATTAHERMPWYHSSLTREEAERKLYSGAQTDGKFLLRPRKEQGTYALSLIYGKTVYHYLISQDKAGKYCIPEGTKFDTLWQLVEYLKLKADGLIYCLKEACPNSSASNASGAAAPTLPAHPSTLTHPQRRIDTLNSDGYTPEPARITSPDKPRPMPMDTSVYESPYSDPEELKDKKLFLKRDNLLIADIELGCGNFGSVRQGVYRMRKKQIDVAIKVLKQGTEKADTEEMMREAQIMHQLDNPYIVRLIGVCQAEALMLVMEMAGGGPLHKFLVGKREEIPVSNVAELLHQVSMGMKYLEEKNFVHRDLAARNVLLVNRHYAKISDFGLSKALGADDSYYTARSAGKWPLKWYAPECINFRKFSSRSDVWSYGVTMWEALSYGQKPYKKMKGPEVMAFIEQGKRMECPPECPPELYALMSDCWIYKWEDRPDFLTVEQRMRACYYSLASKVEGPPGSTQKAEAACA
experiment: Kinase inhibition assay (33P transfer), Zap-70
Format: biochemical
measurement_context: read-out: Zap-1

Worked cases, IC50 given:
COC(=O)Cc1cccc(Nc2ncnc(Nc3cccc(Br)c3)n2)c1 = > 10.9 µM
COc1ccc(Nc2ncnc(NCc3c(C)cccc3Cl)n2)cc1OC = > 11.7 µM
CN(c1ccc(F)c(Cl)c1)c1ncnc(Nc2cccc(Br)c2)n1 = > 11 µM
COc1cccc(Nc2ncnc(-n3c(N)nc4ccccc43)n2)c1 = > 13.5 µM
CN(C)CCNc1ncnc(Nc2ccc3c(cnn3Cc3ccccc3)c2)n1 = > 11.6 µM
COc1cc(Nc2ncnc(NC(=O)NCCc3ccccc3)n2)cc(OC)c1OC = > 10.6 µM
COc1cc(Nc2ncnc(-n3c(NCc4ccccn4)nc4ccccc43)n2)cc(OC)c1OCCn1ccnn1 = > 7.96 µM
O=c1[nH]c2ccccc2n1-c1ncnc(Nc2ccncc2)n1 = > 14.7 µM

Could you share which IC50 value was measured for CN(c1cccc(Cl)c1)c1ncnc(Nc2cccc(CNC(=O)O[C@@H]3CCOC3)c2)n1 ?
> 9.89 µM

Here is the next molecule: COc1ccc(Nc2ncnc(Nc3cccc(-c4ccnc(C)n4)c3)n2)cc1OC
> 10.8 µM

Now the same for COc1cc(Nc2ncnc(N(C)c3ccc(F)c(Cl)c3)n2)cc(OC)c1OC
> 10.7 µM

Another molecule: COc1cc(Nc2ncnc(-n3c(OCc4ccccn4)nc4ccccc43)n2)cc(OC)c1OC
> 9.27 µM

One more molecule: COc1cc(Nc2ncnc(Nc3ccc(NC(=O)O[C@@H]4CCOC4)cc3)n2)cc(OC)c1OC
> 9.33 µM

---

Property: IC50; scope: individual compounds
target_or_test_system: Lck (Homo sapiens, UniProt P06239)
Construct: Kinases are expressed as either kinase domains or full length constructs; made in house
Sequence (P06239 whole entry, species assumed, the tested form may be a part): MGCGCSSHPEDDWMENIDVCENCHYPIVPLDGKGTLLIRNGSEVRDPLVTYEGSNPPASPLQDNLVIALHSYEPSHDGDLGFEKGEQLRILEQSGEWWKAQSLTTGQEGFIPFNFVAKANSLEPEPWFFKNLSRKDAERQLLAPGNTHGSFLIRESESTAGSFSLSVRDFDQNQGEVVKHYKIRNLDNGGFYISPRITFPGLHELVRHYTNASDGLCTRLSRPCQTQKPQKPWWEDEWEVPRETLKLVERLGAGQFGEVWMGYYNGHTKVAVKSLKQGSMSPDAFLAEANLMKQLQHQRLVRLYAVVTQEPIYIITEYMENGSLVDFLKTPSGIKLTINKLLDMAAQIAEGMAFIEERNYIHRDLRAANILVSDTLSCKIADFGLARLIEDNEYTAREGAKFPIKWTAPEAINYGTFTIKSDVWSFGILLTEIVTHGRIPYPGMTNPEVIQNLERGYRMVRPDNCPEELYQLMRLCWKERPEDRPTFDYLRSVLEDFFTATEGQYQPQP
experiment: Kinase inhibition assay (33P transfer), Lck
Assay type: biochemical
measurement_context: Table 3, class symbols; read-out: Lck-1

Examples from the recorded data:
COc1ccc(Nc2ncnc(N(C)c3ccccc3OC(F)(F)F)n2)cc1OC = 0.949 to 5.7 µM
COc1cc(Nc2ncnc(-n3ccnc3Cl)n2)cc(OC)c1OC = 9.65 to 12.4 µM
CC(C)Nc1ncccc1-c1ncnc(Nc2cccc(CC(=O)O)c2)n1 = 1.1 to 6.59 µM
CC(C)Nc1ncccc1-c1ncnc(Nc2ccc(N3CCOCC3)cc2)n1 = 1.02 to 6.13 µM
COc1cc(Nc2ncnc(Nc3cc(-c4ccco4)[nH]n3)n2)cc(C(F)(F)F)c1 = 0.958 to 5.75 µM

Need IC50, item COc1ccc(Nc2ncnc(Nc3ccc4c(c3)C(=O)N(C)C4=O)n2)cc1OC
> 11.1 µM

Next compound: COc1cc(Nc2ncnc(-c3cccnc3Nc3ccccc3)n2)ccc1NC(=O)CCCN1CCNCC1
0.741 to 4.45 µM

Could you do the same for c1ccc(Nc2ncccc2-c2ncnc(Nc3ccc(N4CCOCC4)cc3)n2)cc1 , please?
5.64 to 8.23 µM

---

target_or_test_system: EGFR (Homo sapiens, UniProt P00533)
Construct: Kinases are expressed as either kinase domains or full length constructs; made in house
Sequence (P00533 25-1210, species assumed): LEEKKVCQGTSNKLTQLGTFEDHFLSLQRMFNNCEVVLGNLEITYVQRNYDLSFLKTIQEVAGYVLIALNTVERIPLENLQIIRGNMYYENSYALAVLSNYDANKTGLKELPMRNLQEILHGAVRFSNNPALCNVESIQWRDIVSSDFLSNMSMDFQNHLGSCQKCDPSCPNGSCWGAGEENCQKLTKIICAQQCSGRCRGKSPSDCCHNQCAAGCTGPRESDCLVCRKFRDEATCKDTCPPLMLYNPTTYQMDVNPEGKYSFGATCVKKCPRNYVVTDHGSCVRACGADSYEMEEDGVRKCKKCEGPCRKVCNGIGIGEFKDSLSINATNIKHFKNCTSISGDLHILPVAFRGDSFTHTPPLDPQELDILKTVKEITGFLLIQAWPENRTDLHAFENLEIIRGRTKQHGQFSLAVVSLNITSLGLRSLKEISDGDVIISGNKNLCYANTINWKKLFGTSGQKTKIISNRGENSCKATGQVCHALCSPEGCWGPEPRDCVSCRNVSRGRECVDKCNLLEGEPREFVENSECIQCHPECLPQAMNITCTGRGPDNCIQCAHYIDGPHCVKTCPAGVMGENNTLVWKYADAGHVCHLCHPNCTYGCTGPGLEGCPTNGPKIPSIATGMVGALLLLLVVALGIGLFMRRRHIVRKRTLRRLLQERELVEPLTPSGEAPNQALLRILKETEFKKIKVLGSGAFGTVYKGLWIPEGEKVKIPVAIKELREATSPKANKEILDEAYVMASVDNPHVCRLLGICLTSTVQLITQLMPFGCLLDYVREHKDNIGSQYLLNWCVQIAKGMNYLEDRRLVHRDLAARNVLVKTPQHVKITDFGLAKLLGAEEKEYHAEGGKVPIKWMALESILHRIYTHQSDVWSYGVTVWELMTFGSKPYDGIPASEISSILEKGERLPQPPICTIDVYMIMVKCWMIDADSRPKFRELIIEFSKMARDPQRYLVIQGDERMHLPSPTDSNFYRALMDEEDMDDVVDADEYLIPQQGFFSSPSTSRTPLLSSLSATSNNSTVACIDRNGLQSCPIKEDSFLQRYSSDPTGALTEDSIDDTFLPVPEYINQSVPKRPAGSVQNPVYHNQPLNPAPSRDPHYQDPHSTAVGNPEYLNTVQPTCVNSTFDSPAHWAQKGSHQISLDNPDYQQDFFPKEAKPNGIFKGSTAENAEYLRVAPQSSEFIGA
experiment: Kinase inhibition assay (33P transfer), EGFR
Assay type: biochemical
measurement_context: Table 2, class symbols A-E; read-out: EGFR-1
property_name: IC50

Some solved entries appear below for comparison.
Fc1ccc(CNc2ncccc2-c2ncnc(Nc3ccc4[nH]ncc4c3)n2)cc1 [Compound 1108] = 0.97 to 5.82 µM
COC(=O)c1cccc(Nc2ncnc(-n3c(NCc4ccccc4)nc4ccccc43)n2)c1 [Compound 1067] = 0.886 to 5.32 µM
c1ccc(Nc2ncccc2-c2ncnc(Nc3cccc(Cn4ccnn4)c3)n2)cc1 [Compound 1095] = > 10.7 µM
COc1cccc(Nc2ncccc2-c2ncnc(Nc3cc(OC)c(OC)c(OC)c3)n2)c1 [Compound 829] = 7.6 to 9.77 µM
NC(=O)Cc1cccc(Nc2ncnc(Nc3cccc(Br)c3)n2)c1 [Compound 966] = < 1 µM

Entry under review: C=CCN(c1cccc(Cl)c1)c1ncnc(Nc2cc(OC)cc(OC)c2)n1 [Compound 722] . Reported IC50?
< 1.01 µM

Now try Cc1ccc(-c2cc(Nc3ncnc(Nc4cc(C)ccc4C)n3)[nH]n2)cc1 [Compound 1125] .
< 1.08 µM

How about COc1ccc(Nc2ncnc(N(C)CCc3ccccn3)n2)cc1OC [Compound 869] ?
1.09 to 6.55 µM

Proceed to COc1ccc(Nc2ncnc(N(C)CC(O)c3ccccc3)n2)cc1OC (stereo not drawn) [Compound 868]
1.05 to 6.29 µM

---

target_or_test_system: AKT (Homo sapiens)
Construct: Kinases are expressed as either kinase domains or full length constructs; made in house
Sequence (Q9Y243 whole entry, the tested form may be a part): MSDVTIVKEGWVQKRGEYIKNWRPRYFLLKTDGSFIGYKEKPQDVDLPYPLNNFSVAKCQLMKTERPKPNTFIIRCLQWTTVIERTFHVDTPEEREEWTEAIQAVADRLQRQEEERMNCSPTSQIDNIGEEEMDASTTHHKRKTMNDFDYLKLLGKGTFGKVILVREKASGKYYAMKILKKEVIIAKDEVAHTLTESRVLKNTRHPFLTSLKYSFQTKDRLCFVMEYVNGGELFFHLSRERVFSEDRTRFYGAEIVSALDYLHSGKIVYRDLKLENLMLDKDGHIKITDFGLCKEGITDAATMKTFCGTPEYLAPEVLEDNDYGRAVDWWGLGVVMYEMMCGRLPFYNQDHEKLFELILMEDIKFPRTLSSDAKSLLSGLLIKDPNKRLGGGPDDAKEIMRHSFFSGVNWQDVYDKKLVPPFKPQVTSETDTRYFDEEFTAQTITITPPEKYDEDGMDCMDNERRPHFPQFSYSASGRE
experiment: Kinase inhibition assay (33P transfer), AKT
Type: biochemical
measurement_context: Table 2, class symbols A-E; read-out: AKT3-1
pIC50: −log10 of the molar value.
Measured pIC50 by item

// pIC50 lookup, key: COC(=O)c1ccc(-c2cc(Nc3ncnc(NCCN4CCOCC4)n3)[nH]n2)cc1
< 4.97

Now the compound c1cc(Nc2ncnc(Nc3cc(-c4ccco4)[nH]n3)n2)cc(-c2cnco2)c1
> 5.98

Also O=C(O)Cc1cccc(Nc2ncnc(Nc3ccc(Cl)cc3F)n2)c1 ?
< 4.92

Entry to check: O=C(O)Cc1cccc(Nc2ncnc(-c3cccnc3NCc3ccccc3)n2)c1
< 4.96

Thanks! And COc1ccc(CNc2ncnc(Nc3cc(-c4ccco4)[nH]n3)n2)cc1OC ?
< 4.94

Ok, now Clc1cc(Nc2ncnc(Nc3ccc4c(cnn4Cc4ccccc4)c3)n2)cc(Cl)c1Cl
5.32 to 6.09

Note, next up: COC(=O)c1ccc(-c2cc(Nc3ncnc(NCc4ccco4)n3)[nH]n2)cc1
< 4.94

Next compound up: COc1ccc(Nc2ncnc(N(C)CCc3ccccn3)n2)cc1OC
< 4.91
